assay: Photosensitizing ability was evaluated by the degradation of DPBF by singlet oxygen in DMSO solution at 27 degree Centigrade
Record form. Attribute: k obs. Fill in for each entry.
Record the value in s⁻¹, omitting the unit from your answer.

The molecule listed as OC[C@@H]1O[C@H](Oc2ccc(-c3c4nc(c(-c5ccc(O[C@@H]6O[C@H](CO)[C@H](O)[C@H](O)[C@H]6O)cc5)c5nc(c(-c6ccc(O[C@@H]7O[C@H](CO)[C@H](O)[C@H](O)[C@H]7O)cc6)c6ccc([nH]6)c(-c6ccc(O[C@H]7O[C@@H](CO)[C@@H](O)[C@@H](O)[C@@H]7O)cc6)c6ccc3[nH]6)CC5)C=C4)cc2)[C@@H](O)[C@H](O)[C@@H]1O shows k obs equal to 0.0062

The molecule identified as CC(=O)OC[C@@H]1O[C@H](Oc2ccc(-c3c4nc(c(-c5ccc(O[C@@H]6O[C@H](COC(C)=O)[C@@H](OC(C)=O)[C@H](OC(C)=O)[C@H]6OC(C)=O)cc5)c5nc(c(-c6ccc(O[C@@H]7O[C@H](COC(C)=O)[C@@H](OC(C)=O)[C@H](OC(C)=O)[C@H]7OC(C)=O)cc6)c6ccc([nH]6)c(-c6ccc(O[C@H]7O[C@@H](COC(C)=O)[C@H](OC(C)=O)[C@@H](OC(C)=O)[C@@H]7OC(C)=O)cc6)c6ccc3[nH]6)CC5)C=C4)cc2)[C@@H](OC(C)=O)[C@H](OC(C)=O)[C@H]1OC(C)=O registered its k obs at 0.012

GET /value?item= CC(=O)OC[C@@H]1O[C@H](Oc2ccc(-c3c4nc(c(-c5ccc(O[C@@H]6O[C@H](COC(C)=O)[C@H](OC(C)=O)[C@H](OC(C)=O)[C@H]6OC(C)=O)cc5)c5nc(c(-c6ccc(O[C@@H]7O[C@H](COC(C)=O)[C@H](OC(C)=O)[C@H](OC(C)=O)[C@H]7OC(C)=O)cc6)c6ccc([nH]6)c(-c6ccc(O[C@H]7O[C@@H](COC(C)=O)[C@@H](OC(C)=O)[C@@H](OC(C)=O)[C@@H]7OC(C)=O)cc6)c6ccc3[nH]6)CC5)C=C4)cc2)[C@@H](OC(C)=O)[C@H](OC(C)=O)[C@@H]1OC(C)=O &field=k obs returns 0.0068

Entry OC[C@@H]1O[C@H](Oc2ccc(-c3c4nc(c(-c5ccc(O[C@@H]6O[C@H](CO)[C@@H](O)[C@H](O)[C@H]6O)cc5)c5nc(c(-c6ccc(O[C@@H]7O[C@H](CO)[C@@H](O)[C@H](O)[C@H]7O)cc6)c6ccc([nH]6)c(-c6ccc(O[C@H]7O[C@@H](CO)[C@H](O)[C@@H](O)[C@@H]7O)cc6)c6ccc3[nH]6)CC5)C=C4)cc2)[C@@H](O)[C@H](O)[C@H]1O , k obs reported as 0.0094
